target: T1, human CXCR4 (human, UniProt P61073 1-352); assay: FMAT, hybridoma supernatant on HEK293T cells transiently overexpressing full-length human CXCR4
T1 construct: also called CXCR4 receptor; C-X-C chemokine receptor type 4
T1 sequence (P61073 whole entry): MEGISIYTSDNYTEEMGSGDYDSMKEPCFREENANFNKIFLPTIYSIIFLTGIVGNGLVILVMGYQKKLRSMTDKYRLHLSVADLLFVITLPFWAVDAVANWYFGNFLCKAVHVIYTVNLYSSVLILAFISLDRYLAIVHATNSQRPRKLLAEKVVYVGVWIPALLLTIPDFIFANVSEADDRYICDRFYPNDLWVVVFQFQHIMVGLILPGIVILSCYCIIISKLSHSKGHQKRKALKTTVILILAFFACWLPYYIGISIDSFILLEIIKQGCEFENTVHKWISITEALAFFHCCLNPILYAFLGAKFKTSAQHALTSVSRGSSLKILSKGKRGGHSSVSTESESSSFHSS
endpoint.label: FL1

Asked: Returns the measured FL1 for the input binder. Input: 2A4 (antibody, V domains shown, Fully human monoclonal antibody from XenoMouse hybridoma; also called mAb 2A4; Mab2A4) VH: QVQLVESGGGVVQPGRSLRLSCAASGFTFSSYGMHWVRQAPGKGLEWVAVISYDGSNKYYADSVKGRFTISRDNSKNTLYLQMNSLRAEDTAVYYCTRGGLAARRNYYYSYGTDVWGQGTTVTVSS VL: DIQMTQSPSSLSASVGDRVTITCRASQDIRNDLGWYQQKPGKAPTRLIYAASSLQSGVPSRFSGSGSGTQFTLTISSLQPEDFATYYCLQHNSYPLTFGGGTKVQIK
Given back: 8370
